Assay: Solubility measurement (DMSO solution precipitation method)
Type: physicochemical
Settings: aqueous buffer, kinetic from dmso stock; McIlvaine buffer pH 6.8, 24 h; read-out: Solubility [μg/ml] pH 6.8
Measured solubility at 24 h values are reported for all entries that follow.

• C[C@H](Oc1cc(Oc2nccs2)nc(-c2onc3c2CCC[C@@]32CCCc3sc(N)c(C#N)c32)n1)[C@@H]1CCCN1C [Example I-1] = < 1 µg/mL
• C[C@H](Oc1cc(OCCO)nc(-c2noc3c2CCC[C@@]32CCCc3sc(N)c(C#N)c32)n1)[C@@H]1CCCN1C [II-6] = > 119 µg/mL

// recorded solubility at 24 h for C[C@H](Oc1cc(Oc2cncnc2)nc(-c2onc3c2CCC[C@@]32CCCc3sc(N)c(C#N)c32)n1)[C@@H]1CCCN1C [Example I-3] : > 121 µg/mL

* * *

Assay: Plasma protein binding assay (PPB), equilibrium dialysis
Type: in vitro ADME
Conditions: bovine, 10% FCS in PBS, read-out: PPB 10% FCS (% fu)
Quantity Kind: fraction unbound
Lab note: jot down the number only; don't add units.

Worked cases, answers included:
* C[C@H](Oc1cc(OCC2(N(C)C)COC2)nc(-c2onc3c2CCC[C@@]32CCCc3sc(N)c(C#N)c32)n1)[C@@H]1CCCN1C | 0.45
* C[C@H](Oc1cc(Oc2nccs2)nc(-c2noc3c2CCC[C@@]32CCCc3sc(N)c(C#N)c32)n1)[C@@H]1CCCN1C | 0.07
* C[C@H](Oc1cc(Oc2cccnc2)nc(-c2onc3c2CCC[C@@]32CCCc3sc(N)c(C#N)c32)n1)[C@@H]1CCCN1C | 0.31
* C[C@H](Oc1cc(O[C@@H]2CNC[C@@H]2F)nc(-c2noc3c2CCC[C@@]32CCCc3sc(N)c(C#N)c32)n1)[C@@H]1CCCN1C | 0.52
* C[C@H](Oc1cc(O[C@@H]2CNC2(C)C)nc(-c2noc3c2CCC[C@@]32CCCc3sc(N)c(C#N)c32)n1)[C@@H]1CCCN1C | 0.52
* CO[C@@H]1C[C@@H]([C@H](C)Oc2cc(O[C@@H]3CNC3(C)C)nc(-c3noc4c3CCC[C@@]43CCCc4sc(N)c(C#N)c43)n2)N(C)C1 | 0.3
* C[C@H](Oc1cc(O[C@H]2CCOC2)nc(-c2noc3c2CCC[C@@]32CCCc3sc(N)c(C#N)c32)n1)[C@@H]1CCCN1C | 0.54
* C[C@H](Oc1cc(Nc2cnccn2)nc(-c2noc3c2CCC[C@@]32CCCc3sc(N)c(C#N)c32)n1)[C@@H]1CCCN1C | 0.1

Input `C[C@H](Oc1cc(Oc2cnccn2)nc(-c2noc3c2CCC[C@@]32CCCc3sc(N)c(C#N)c32)n1)[C@@H]1CCCN1C` . Output fraction unbound: 0.28

Query `C[C@H](Oc1cc(O[C@H]2CN(C)C(C)(C)C2)nc(-c2noc3c2CCC[C@@]32CCCc3sc(N)c(C#N)c32)n1)[C@@H]1CCCN1C` yields fraction unbound of 0.12

So for `C[C@H](Oc1cc(N[C@H]2CCOC2)nc(-c2onc3c2CCC[C@@]32CCCc3sc(N)c(C#N)c32)n1)[C@@H]1CCCN1C` , the logged fraction unbound turned out to be 0.6

Note to self: fraction unbound recorded for `C[C@H](Oc1cc(NCC2COC2)nc(-c2noc3c2CCC[C@@]32CCCc3sc(N)c(C#N)c32)n1)[C@@H]1CCCN1C` was 0.62

Just so you know, measured fraction unbound for `C[C@H](Oc1cc(OCC2(N(C)C)COC2)nc(-c2noc3c2CCC[C@@]32CCCc3sc(N)c(C#N)c32)n1)[C@@H]1CCCN1C` came out at 0.46

For reference, reported fraction unbound for `C[C@H](Oc1cc(Nc2ccncn2)nc(-c2noc3c2CCC[C@@]32CCCc3sc(N)c(C#N)c32)n1)[C@@H]1CCCN1C` stands at 0.5

Consider `COCCOc1cc(O[C@@H](C)[C@@H]2CCCN2C)nc(-c2noc3c2CCC[C@@]32CCCc3sc(N)c(C#N)c32)n1` . Its measured fraction unbound is 0.5

* * *

Experiment: Metabolic (microsomal) stability assay, human liver microsomes (HLM)
Assay type: in vitro ADME
Details: 1 μM, predicted clearance as percent of liver blood flow
Quantity Kind: HLM QH [%] (%)
Express your answer in %, writing the number without its unit.

Entry C[C@H](Oc1cc(Oc2nccs2)nc(-c2onc3c2CCC[C@@]32CCCc3sc(N)c(C#N)c32)n1)[C@@H]1CCCN1C [Example I-1] , HLM QH [%] reported as 44

Field HLM QH [%] (entry C[C@H](Oc1cc(O[C@@H]2CNC2(C)C)nc(-c2noc3c2CCC[C@@]32CCCc3sc(N)c(C#N)c32)n1)[C@@H]1C[C@@H](F)CN1C [II-31] ) reads 37

Form: molecule = C[C@H](Oc1cc(OCCO)nc(-c2noc3c2CCC[C@@]32CCCc3sc(N)c(C#N)c32)n1)[C@@H]1CCCN1C [II-6] ; HLM QH [%] = 40

* * *

# reported IC50; entries follow
Target: KRAS (G12C)::SOS1 (Homo sapiens, UniProt P01116, C118S/C51S/C80L/G12C)
Construct: KRAS (G12C) 1-169, N-terminal 6His-tag for purification, cleaved off; 6His-tag (N, cleaved yes); made in house
Sequence (P01116 1-169 isoform P01116-2 G12C/C51S/C80L/C118S): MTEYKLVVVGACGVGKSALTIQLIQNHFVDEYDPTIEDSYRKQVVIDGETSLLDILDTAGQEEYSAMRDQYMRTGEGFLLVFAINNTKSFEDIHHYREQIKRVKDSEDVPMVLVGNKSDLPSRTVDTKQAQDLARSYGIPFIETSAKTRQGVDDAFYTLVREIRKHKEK
Experiment: KRAS::SOS1 AlphaScreen binding assay, KRAS G12C
Conditions: read-out: KRASG12C IC50
// units = nM; emit number, no label

Use the examples below as a reference point.
* C[C@H](Oc1cc(O[C@@H]2CNC2(C)C)nc(-c2noc3c2CCC[C@@]32CCCc3sc(N)c(C#N)c32)n1)[C@@H]1CCCN1C [II-9] | 2
* C[C@H](Oc1cc(OCC2(N(C)C)COC2)nc(-c2noc3c2CCC[C@@]32CCCc3sc(N)c(C#N)c32)n1)[C@@H]1CCCN1C [II-22] | 2
* C[C@H](Oc1cc(O[C@H]2CCOC2)nc(-c2noc3c2CCC[C@@]32CCCc3sc(N)c(C#N)c32)n1)[C@@H]1CCCN1C [II-4] | 2
* C[C@H](Oc1cc(Nc2cccnn2)nc(-c2noc3c2CCC[C@@]32CCCc3sc(N)c(C#N)c32)n1)[C@@H]1CCCN1C [II-18] | 2
* C[C@H](Oc1cc(Oc2cnccn2)nc(-c2noc3c2CCC[C@@]32CCCc3sc(N)c(C#N)c32)n1)[C@@H]1CCCN1C [II-7] | 2
* C[C@H](Oc1cc(Oc2ccon2)nc(-c2noc3c2CCC[C@@]32CCCc3sc(N)c(C#N)c32)n1)[C@@H]1CCCN1C [II-3] | 2

With those in mind, consider the next molecule.
// C[C@H](Oc1cc(N(C)C)nc(-c2noc3c2CCC[C@@]32CCCc3sc(N)c(C#N)c32)n1)[C@@H]1CCCN1C [II-10] : IC50 value = 2

* * *

Assay: Solubility measurement (DMSO solution precipitation method)
Format: physicochemical
Conditions: aqueous buffer, kinetic from dmso stock; McIlvaine buffer pH 4.5, 24 h; read-out: Solubility [μg/ml] pH 4.5
Items are presented alongside their recorded solubility at 24 h.

* C[C@H](Oc1cc(O[C@H]2CCOC2)nc(-c2noc3c2CCC[C@@]32CCCc3sc(N)c(C#N)c32)n1)[C@@H]1CCCN1C | 80 µg/mL

Consider `C[C@H](Oc1cc(O[C@H]2CN(C)C(C)(C)C2)nc(-c2noc3c2CCC[C@@]32CCCc3sc(N)c(C#N)c32)n1)[C@@H]1CCCN1C` . Its measured solubility at 24 h is > 161 µg/mL

// `C[C@H](Oc1cc(Nc2nccs2)nc(-c2noc3c2CCC[C@@]32CCCc3sc(N)c(C#N)c32)n1)[C@@H]1CCCN1C` : solubility at 24 h value = 2 µg/mL

So for `C[C@H](Oc1cc(Oc2nccs2)nc(-c2noc3c2CCC[C@@]32CCCc3sc(N)c(C#N)c32)n1)[C@@H]1CCCN1C` , the logged solubility at 24 h turned out to be > 109 µg/mL

* * *

Reported values of fraction unbound for individual entries
Test: Plasma protein binding assay (PPB), equilibrium dialysis
Assay type: in vitro ADME
Conditions: bovine, 10% FCS in PBS, read-out: PPB 10% FCS (% fu)
Output spec: single numeric token, no unit.

- COC[C@H](C)Nc1cc(O[C@@H](C)[C@@H]2CCCN2C)nc(-c2onc3c2CCC[C@@]32CCCc3sc(N)c(C#N)c32)n1: 0.45
- C[C@H](Oc1cc(O[C@H]2CNC(C)(C)C2)nc(-c2noc3c2CCC[C@@]32CCCc3sc(N)c(C#N)c32)n1)[C@@H]1CCCN1C (single isomer, unassigned): 0.59

Now for another entry.
GET /value?item= `C[C@H]1CN(C)CCCN1c1cc(O[C@@H]2CNC2(C)C)nc(-c2noc3c2CCC[C@@]32CCCc3sc(N)c(C#N)c32)n1` &field=fraction unbound returns 0.59
